Readout label: melting point (°C)

CC(O)c1cc(N)ccc1N (stereo unspecified)	124
CC1=NN(C)c2nc(C)c(CCO)c(=O)n2C1	140
CN(C)c1c(Cl)cc(C(O)C#Cc2ccc(C(=O)O)c(O)c2)cc1C(C)(C)C (stereo unspecified)	175
CCOC(=O)C1=C(C)Nc2nc(N3CCOCC3)nc(N3CCOCC3)c2C1c1ccc(Cl)cc1 (stereo unspecified)	128

----------
Readout label: melting point

Worked examples, 3 molecules total:
O=C(c1ccccc1)c1ccc(C(=O)N2Cc3ccccc3CCc3ccccc32)cc1	89 to 92 °C
O=C(O)Cc1cc(C(=O)c2ccc(Br)cc2)sc1-c1ccccc1	147 to 150 °C
O=Cc1cnc2sc3c(n12)CCCCCC3	106 to 107 °C

# melting point of CCOC(=O)CNc1nc(-c2ccccc2)c2cc(Cl)ccc2n1 = 146 °C

Consider COc1cc(O)c(CN2CCc3cc(O)ccc3C2)c(OC)c1 . Its measured melting point is 109 to 112 °C

Entry COC(=O)c1ccc(NC(C)=O)c(CC(=O)O)c1 , melting point reported as 194 °C

So, COc1ccc(S(=O)(=O)C2(C(=O)O)CCCN(Cc3ccccc3)C2)cc1 (stereo unspecified) ? Its melting point was 133 °C

Just so you know, measured melting point for CCOCc1nc2c(N)nc3cc(Br)cnc3c2n1CC(C)(C)F came out at 221 to 222 °C

The measured melting point associated with Cn1ncc(C(=O)N2C[C@H]3C[C@@H]2CO3)c1C(=O)Nc1ccn2nc(-c3cccnc3)nc2c1 reads 272 to 273 °C

Documented melting point of O=c1c2ccccc2c(-c2ccccc2)c2n1CCCC2O (stereo unspecified) : 220 to 222 °C

Briefly, melting point measured for COC(=O)CCCCCCC1=CC(O)CC1=O (stereo unspecified) : 50 to 51 °C

----------
# melting point annotations

O=C(O)C1=Cc2cc(Cl)c(Oc3cccc(Cl)c3)cc2OC1C(F)(F)F (stereo not given)	174 to 176 °C
CCOC(=O)C(=O)Nc1c(C)cc(C(F)(F)F)cc1[N+](=O)[O-]	118 to 120 °C
c1ccc(Cn2c3ccccc3c3cc(-c4nc(C5CC5)no4)sc32)cc1	140 to 141 °C
C[Si](C)(C)OC1(C#N)CCOc2c(Cl)cc(Cl)cc21 (stereo not given)	77 to 79 °C
COc1cccc(Oc2ccc(CCNc3ncnc4nccnc34)cc2)n1	152 to 153 °C
O=C1OC(=O)c2c1cccc2N1C(=O)CCC1=O	202 to 205 °C
CS(=O)(=O)N1CCC(Nc2nc(Nc3ccc(F)c(C(=O)N4CCOCC4)c3)nc(OCC(F)(F)F)n2)CC1	217 to 219 °C
O=C(O)c1cc2c(c(C(=O)O)c1)NCCCC2	287 to 288 °C
CNc1cc2c(cc1[N+](=O)[O-])OCO2	170 °C

Here's the next entry for you.
# compound FC(F)(F)c1cccc(-c2nc(-c3ccccn3)no2)c1 ; its melting point = 116 to 118 °C

----------
Readout label: melting point

Nc1ccc2ccc(Oc3ccccc3)nc2n1	196 °C
CCOC(=O)c1cnn2c1c(N)nc1ccccc12	235 to 237 °C
CCCCCCCNC(=O)Oc1ccc2c(c1)N(Cc1ccccc1)CCC2	50 °C
Cc1cc(NC2=NCCN2)n(-c2ccc(F)cc2)n1	213 to 215 °C
CCOC(=O)CCc1cn(-c2ccccc2)nc1OCc1ccc(OCc2nc(-c3ccco3)oc2C)c(OC)c1	97 to 98 °C

Now for a further compound.
Input CCCCC/C(=C\C=C\C(=S)NCCCCc1cccnc1)c1ccc(OC)cc1 . Output melting point: 121 to 122 °C

# credit: a melting point compilation (Tetko et al.; mined from patent text by program, amines drawn as free bases though some values may be those of a salt)
